- test: in vitro
- Assay type: in vitro ADME
- Design: dose or concentration left out as unconfirmed
- setup_conditions: simulated intestinal fluid (SIF) with pancreatin, pH 6.8, 37° C., § matrix is 100 fold dilution of standard SIF concentration, read-out: SIF t½ (converted)
Bridge positions count the residues as written; N and C are the ends. Square brackets hold non-standard residues; d marks the D form. Peptide text beside a SMILES is read from it. Trp(7-Me) = Cc1cccc2c(C[C@H](N)C(=O)O)c[nH]c12; 2Nal = N[C@@H](Cc1ccc2ccccc2c1)C(=O)O; AEF = NCCOc1ccc(C[C@H](N)C(=O)O)cc1; Cit = NC(=O)NCCC[C@H](N)C(=O)O; Pen = CC(C)(S)[C@H](N)C(=O)O; αMeK = C[C@](N)(CCCCN)C(=O)O; Aib = CC(C)(N)C(=O)O
Provide the recorded half-life for the entries that follow.
# value in h; strip the unit string

Task: # lookup: half-life of CC(=O)NCCCC[C@H](NC(=O)[C@](C)(CCCCN)NC(=O)[C@H](Cc1ccc2ccccc2c1)NC(=O)[C@H](Cc1ccc(OCCN)cc1)NC(=O)[C@H]1NC(=O)[C@H](CCCNC(N)=O)NC(=O)[C@H](Cc2c[nH]c3c(C)cccc23)NC(=O)[C@H]([C@@H](C)O)NC(=O)[C@H](CC(N)=O)NC(=O)[C@@H](NC(C)=O)C(C)(C)SSC1(C)C)C(=O)N[C@@H](CC(N)=O)C(=O)NC(C)(C)C(N)=O [compound 264] (Ac-[Pen]NT[Trp(7-Me)][Cit][Pen][AEF][2Nal][αMeK]K(Ac)N[Aib]-NH2; disulfide 1-6)
Output: 18

Task: # lookup: half-life of `CC(=O)NCCCC[C@H](NC(=O)C1(NC(=O)[C@H](Cc2ccc3ccccc3c2)NC(=O)[C@H](Cc2ccc(OCCN)cc2)NC(=O)[C@@H]2CSCC[C@H](NC(=O)[C@@H](CCCNC(=N)N)NC(C)=O)C(=O)N[C@@H](CCC(N)=O)C(=O)N[C@@H]([C@@H](C)O)C(=O)N[C@@H](Cc3c[nH]c4c(C)cccc34)C(=O)N[C@@H](CCC(N)=O)C(=O)N2)CCOCC1)C(=O)N[C@@H](CC(N)=O)C(=O)N[C@@H](CC(N)=O)C(N)=O`
Output: 21

Task: # lookup: half-life of `CC(=O)NCCCC[C@@H]1NC(=O)[C@H](Cc2c[nH]c3c(C)cccc23)NC(=O)[C@H]([C@@H](C)O)NC(=O)[C@H](CC(N)=O)NC(=O)[C@@H](NC(C)=O)C(C)(C)SSC(C)(C)[C@@H](C(=O)N[C@@H](Cc2ccc(OCCN)cc2)C(=O)N[C@@H](Cc2ccc3ccccc3c2)C(=O)N[C@@](C)(CCCCN)C(=O)N[C@@H](CCCCNC(C)=O)C(=O)N[C@@H](CC(N)=O)C(=O)N[C@@H](C(N)=O)C(C)C)NC1=O`
Output: 22

Task: # lookup: half-life of `CC(=O)NCCCC[C@@H]1NC(=O)[C@H](Cc2c[nH]c3c(C)cccc23)NC(=O)[C@H]([C@@H](C)O)NC(=O)[C@H](CC(N)=O)NC(=O)[C@@H](NC(C)=O)C(C)(C)SSC(C)(C)[C@@H](C(=O)N[C@@H](Cc2ccc(OCCN)cc2)C(=O)N[C@@H](Cc2ccc3ccccc3c2)C(=O)N[C@@](C)(CCCCN)C(=O)N[C@@H](CCCCNC(C)=O)C(=O)N[C@@H](CO)C(=O)NCCC(N)=O)NC1=O`
Output: 22

Task: # lookup: half-life of `CC(=O)NCCCC[C@H](NC(=O)[C@](C)(CCCCN)NC(=O)[C@H](Cc1ccc2ccccc2c1)NC(=O)[C@H](Cc1ccc(OCCN)cc1)NC(=O)[C@H]1NC(=O)[C@H](CCCCNC(=O)CCN)NC(=O)[C@H](Cc2c[nH]c3c(C)cccc23)NC(=O)[C@H]([C@@H](C)O)NC(=O)[C@H](CC(N)=O)NC(=O)[C@@H](NC(C)=O)C(C)(C)SSC1(C)C)C(=O)N[C@@H](CC(N)=O)C(=O)N[C@H](CC(C)C)C(N)=O`
Output: 3

----------
- test: in vitro
- setup_conditions: both, SD, rat, plasma (EDTA)
Provide the recorded half-life at 20 μM for the entries that follow.
# value in h; strip the unit string

Task: # lookup: half-life at 20 μM of `CC(=O)NCCCC[C@H](NC(=O)[C@](C)(CC(C)C)NC(=O)[C@H](Cc1ccc2ccccc2c1)NC(=O)[C@H](Cc1ccc(OCCN)cc1)NC(=O)[C@H]1NC(=O)[C@H](CCC(N)=O)NC(=O)[C@H](Cc2c[nH]c3c(C)cccc23)NC(=O)[C@H]([C@@H](C)O)NC(=O)[C@H](CC(N)=O)NC(=O)[C@@H](NC(C)=O)C(C)(C)SSC1(C)C)C(=O)N[C@@H](CC(C)C)C(=O)NCCC(N)=O`
Output: 2

Task: # lookup: half-life at 20 μM of `CC(=O)N[C@@H]1C(=O)N[C@@H](CC(N)=O)C(=O)N[C@@H]([C@@H](C)O)C(=O)N[C@@H](Cc2c[nH]c3c(C)cccc23)C(=O)N[C@@H](CCC(N)=O)C(=O)N[C@H](C(=O)N[C@@H](Cc2ccc(OCCN)cc2)C(=O)N[C@@H](Cc2ccc3ccccc3c2)C(=O)N[C@@](C)(CC(C)C)C(=O)NCC(=O)N2CCC[C@@H]2C(=O)NCCC(N)=O)C(C)(C)SSC1(C)C`
Output: 1

----------
- setup_conditions: 20% human fecal homogenate, 37° C., 20 μM
Bridge positions count the residues as written; N and C are the ends. Square brackets hold non-standard residues; d marks the D form. Peptide text beside a SMILES is read from it. Trp(7-Me) = Cc1cccc2c(C[C@H](N)C(=O)O)c[nH]c12; 2Nal = N[C@@H](Cc1ccc2ccccc2c1)C(=O)O; AEF = NCCOc1ccc(C[C@H](N)C(=O)O)cc1; Pen = CC(C)(S)[C@H](N)C(=O)O; αMeK = C[C@](N)(CCCCN)C(=O)O; Aib = CC(C)(N)C(=O)O; βAla = NCCC(=O)O
Provide the recorded t½: Human Feces anaerobic for the entries that follow.
# value in h; strip the unit string

Task: # lookup: t½: Human Feces anaerobic of CC(=O)NCCCC[C@H](NC(=O)[C@](C)(CCCCN)NC(=O)[C@H](Cc1ccc2ccccc2c1)NC(=O)[C@H](Cc1ccc(OCCN)cc1)NC(=O)[C@H]1NC(=O)[C@H](CCC(N)=O)NC(=O)[C@H](Cc2c[nH]c3c(C)cccc23)NC(=O)[C@H]([C@@H](C)O)NC(=O)C(C)(C)NC(=O)[C@@H](NC(C)=O)C(C)(C)SSC1(C)C)C(=O)N[C@@H](CC(N)=O)C(=O)NCCC(N)=O [compound 240] (Ac-[Pen][Aib]T[Trp(7-Me)]Q[Pen][AEF][2Nal][αMeK]K(Ac)N[βAla]-NH2; disulfide 1-6)
Output: 4

Task: # lookup: t½: Human Feces anaerobic of `CC(=O)NCCCC[C@H](NC(=O)[C@](C)(CC(C)C)NC(=O)[C@H](Cc1ccc2ccccc2c1)NC(=O)[C@H](Cc1ccc(OCCN)cc1)NC(=O)[C@H]1NC(=O)[C@H](CCC(N)=O)NC(=O)[C@H](Cc2c[nH]c3c(C)cccc23)NC(=O)[C@H]([C@@H](C)O)NC(=O)[C@H](CC(N)=O)NC(=O)[C@@H](NC(C)=O)C(C)(C)SSC1(C)C)C(=O)N1CCC[C@H]1C(=O)NCCC(N)=O`
Output: 10
